Test system: normal diploid human fibroblasts (MRC-5 pd30)
Test: in vitro
Format: cell-based
Conditions: Table 7, MMV04 SAR; read-out: MRC5 EC50
Reported EC50 by item:

query smiles	result
CCOC(=O)c1ccc(NC(=O)c2cc(-c3cccnc3)nc3ccc(Cl)cc23)cc1	18 µM

Kindly note the recorded EC50 for COc1cc(NC(=O)c2cc(-c3cccnc3)nc3ccc(Br)cc23)cc(OC)c1 , which is > 50 µM

Form field EC50, entry O=C(Nc1cccnc1)c1cc(-c2cccnc2)nc2ccc(Br)cc12 : > 15 µM

The compound identified as O=C(Nc1cccnc1)c1cc(-c2cccnc2)nc2ccc(Cl)cc12 registered its EC50 at > 50 µM

---

// reported pEC50 per item
Tested on: normal diploid human fibroblasts (MRC-5 pd30)
Assay: in vitro
Type: cell-based
Details: Table 6, MMV02 SAR; read-out: MRC5 EC50
Scale for pEC50: -log10 of concentration given in mol/L; no unit attached.

query smiles	pEC50
FC(F)(F)Oc1ccc(Nc2cc(-c3cccc(C(F)(F)F)c3)nc(-c3ccccc3)n2)cc1	4.96

Attention now shifts to the item below.
According to the records, this compound Fc1ccc(-c2cc(Nc3ccncc3)nc(-c3ccccc3)n2)cc1 displays pEC50 of 5.22

---

Listing: pEC50 of selected compounds
Tested on: Plasmodium falciparum 3D7
Assay: microbe, parasite or virus in culture
Details: read-out: P. fal. EC50; Table 8, MMV03 SAR
Protocol: Growth inhibition was quantified using a fluorescence assay utilizing the binding of SYBR Green I to double stranded DNA, which emits a fluorescent signal at 528 nm after excitation at 485 nm. The SYBR Green assay system was adapted to maximize robustness and to align with available automation systems. […] Single point screens were carried out, and the potency of compounds of interest was determined in duplicate on two independent occasions. […]
By convention, pEC50 is the negative base-10 log of a molar concentration.

query smiles	readout type	recorded number
O=C(Nc1cccnc1)c1cn(-c2ccccc2)nc1-c1cccnc1	pEC50	5.70

Assay Plasmodium falciparum 3D7, sample N#Cc1ccc(-n2cc(C(=O)Nc3nc4ccccc4[nH]3)c(-c3cccnc3)n2)cc1 , pEC50 read: 6.40

The recorded pEC50 with Plasmodium falciparum 3D7 for O=C(Nc1nc2ccccc2[nH]1)c1cn(-c2ccc(F)cc2)nc1-c1cccnc1 was 6.22

Lab note: compound O=C(Nc1ccncc1)c1cn(-c2ccccc2)nc1-c1cccs1 tested on Plasmodium falciparum 3D7; recorded pEC50 was 6.15
